Origin of measurements: patent US20080160035A1

Molecular target: T1, hIL-4R on cells (STAT6-transfected HEK293, TF1, TF1/A12) (human, UniProt P24394 26-825)
T1 sequence (looked up): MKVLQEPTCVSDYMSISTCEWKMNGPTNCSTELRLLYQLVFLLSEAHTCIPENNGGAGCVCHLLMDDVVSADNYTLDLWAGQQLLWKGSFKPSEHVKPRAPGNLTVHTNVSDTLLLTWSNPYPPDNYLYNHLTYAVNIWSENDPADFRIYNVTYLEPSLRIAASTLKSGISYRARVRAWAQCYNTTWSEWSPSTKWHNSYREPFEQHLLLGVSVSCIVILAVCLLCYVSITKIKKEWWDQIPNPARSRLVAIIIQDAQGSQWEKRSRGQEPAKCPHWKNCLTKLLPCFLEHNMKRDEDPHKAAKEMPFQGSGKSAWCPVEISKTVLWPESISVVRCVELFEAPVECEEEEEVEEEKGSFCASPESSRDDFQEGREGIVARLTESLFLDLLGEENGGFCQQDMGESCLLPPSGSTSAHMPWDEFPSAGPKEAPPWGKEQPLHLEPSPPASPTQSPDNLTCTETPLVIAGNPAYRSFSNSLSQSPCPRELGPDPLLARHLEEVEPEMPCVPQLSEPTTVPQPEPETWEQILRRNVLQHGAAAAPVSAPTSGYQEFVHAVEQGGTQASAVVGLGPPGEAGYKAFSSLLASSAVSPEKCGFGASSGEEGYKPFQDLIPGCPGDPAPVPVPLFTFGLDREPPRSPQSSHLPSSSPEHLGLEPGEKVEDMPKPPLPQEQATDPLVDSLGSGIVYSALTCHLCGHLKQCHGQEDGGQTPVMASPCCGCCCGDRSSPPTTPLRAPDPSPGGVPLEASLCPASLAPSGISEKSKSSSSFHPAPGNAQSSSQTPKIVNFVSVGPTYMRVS
Test: cell-based or functional assay
valueKind: TF1/A12 Bioassay IC50 (proliferation, 20 pM hIL-4) (pM)
// units = pM; emit number, no label

Report TF1/A12 Bioassay IC50 (proliferation, 20 pM hIL-4), nothing else, for this binder: VAB 16F3-1 (antibody, V domains shown, Apparently tested with mouse constant region (anti-mouse IgG capture/detection)) VH: QVQLVQSGAEVKKPGASVKVSCKASGYTFNSYGISWVRQAPGQGLEWMGWIRTYNGNTNYAQKLQGRVTMTTDTSTSTAYMELRSLRSDDTAVYYCARDEARIVVAGTTPYYYGMDVWGQGTTVTVSS VL: DIQMTQSPSSVSASVGDRVTITCRASQDISIWLAWYQQSPGKAPKLLINVASRLQSGVPSRFSGSGSGTDFTLTINSLQPEDFVTYYCQQANSFPITFGQGTRLATK
67
